test_protocol: melting temperature; melt of duplexes
condition_details: sodium 0.0675 M; strand 1 µM
measured_quantity: Tm (°C)

[[record]]
substance = "CGACGTGCCATATGTGCTG+CAGCACATGGGGCACGTCG (((((((((..((((((((+))))))))..)))))))))"
measured_quantity = "Tm"
units_label = "°C"
value_observed = 56.7

[[record]]
substance = "CGACGTGCGGTATGTGCTG+CAGCACATCCAGCACGTCG ((((((((.(.((((((((+)))))))).).))))))))"
measured_quantity = "Tm"
units_label = "°C"
value_observed = 55.1

[[record]]
substance = "CGACGTGCTTTATGTGCTG+CAGCACATCCAGCACGTCG (((((((((..((((((((+))))))))..)))))))))"
measured_quantity = "Tm"
units_label = "°C"
value_observed = 49.4

[[record]]
substance = "CGACGTGCTGAATGTGCTG+CAGCACATCCAGCACGTCG ((((((((((.((((((((+)))))))).))))))))))"
measured_quantity = "Tm"
units_label = "°C"
value_observed = 57.6

